pKi: −log10 of the molar value.
pKi values for Alpha-1A adrenergic receptor (Homo sapiens, UniProt P35348), compiled from several publications.
OUTCOME_MEASURE: pKi

Sample answers from the record:
> print(dat)
                                   compound                               measured.on  outcome.measure  test.value
1  CC(C)Oc1ccccc1N1CCN([C@H]2CC[C@H](NC(=O)Nc3ccccc3Cl)CC2)CC1  Alpha-1A adrenergic receptor (Homo sapiens, UniProt P35348)              pKi        7.94
2  CC(C)Oc1ccccc1N1CCN(C2CCC(N3C(=O)c4cc(Cl)c(Cl)cc4C3=O)CC2)CC1 (mixture of isomers)  Alpha-1A adrenergic receptor (Homo sapiens, UniProt P35348)              pKi        8.57
3  CC(C)Oc1cc(F)ccc1N1CCN([C@H]2CC[C@H](NS(=O)(=O)c3cc(Cl)ccc3F)CC2)CC1  Alpha-1A adrenergic receptor (Homo sapiens, UniProt P35348)              pKi        8.27
4  COc1ccc(S(=O)(=O)N[C@H]2CC[C@@H](N3CCN(c4ccc(F)cc4OCC(F)(F)F)CC3)CC2)cc1OC  Alpha-1A adrenergic receptor (Homo sapiens, UniProt P35348)              pKi        7.86
5  CC(C)Oc1ccccc1N1CCN([C@H]2CC[C@@H](NC(=O)Nc3cc(F)cc(F)c3)CC2)CC1  Alpha-1A adrenergic receptor (Homo sapiens, UniProt P35348)              pKi        6.97

A: COc1ccc(C(F)(F)F)cc1S(=O)(=O)N[C@H]1CC[C@@H](N2CCN(c3ccccc3OC(C)C)CC2)CC1
B: CC(C)Oc1ccccc1N1CCN([C@H]2CC[C@@H](NS(=O)(=O)c3ccccc3[N+](=O)[O-])CC2)CC1
C: CC(C)Oc1ccccc1N1CCN([C@H]2CC[C@H](NS(=O)(=O)c3cnc(Cl)c(Br)c3)CC2)CC1
D: COc1cc2nc(N3CCN[C@H](C(=O)NC(C)(C)C)C3)nc(N)c2cc1OC
Challenge: Reorder the items by pKi, least to greatest. Would you mind listing the labels in the order requested?
Response given: D, A, B, C
